Entries and their melting point

Examples with their reported melting point follow.
Please report the recorded melting point for `CC(C)(O)c1ccc(CNC(=O)c2cccnc2Oc2ccc3nonc3c2)c(Cl)c1` .
171 to 173 °C

Next record, please: CC(NC(=O)c1cccnc1Oc1ccc2nonc2c1)c1ccc(C(C)(C)O)cc1F (racemic)
128 to 130 °C

Next:
Please report the recorded melting point for `CC(C)(O)c1ccc(CNC(=O)c2cccnc2Oc2ccc3nonc3c2)c(F)c1` .
160 to 161 °C

---

Entries and their melting point

Examples with their reported melting point follow.
Please report the recorded melting point for CC(NC(=O)c1cccnc1Oc1ccc2nonc2c1)c1ccc(C(C)(C)O)cc1 (racemic) [Example 17] .
116 to 117 °C

Next record, please: CC(O)c1ccc(CNC(=O)c2cccnc2Oc2ccc3nonc3c2)s1 (racemic) [Example 6]
81 to 83 °C

Next record, please: O=C(NCc1ccc(C(O)C(F)(F)F)cc1)c1cccnc1Oc1ccc2nonc2c1 (racemic) [Example 5]
164 to 166 °C

Kindly review the next compound as well.
Please report the recorded melting point for CC(=O)c1ccc(CNC(=O)c2cccnc2Oc2ccc3nonc3c2)cc1 [Example 7] .
154 to 156 °C
